# Study target: Transient receptor potential cation channel subfamily V member 1 (Homo sapiens)
# Sequence (Q8NER1 whole entry): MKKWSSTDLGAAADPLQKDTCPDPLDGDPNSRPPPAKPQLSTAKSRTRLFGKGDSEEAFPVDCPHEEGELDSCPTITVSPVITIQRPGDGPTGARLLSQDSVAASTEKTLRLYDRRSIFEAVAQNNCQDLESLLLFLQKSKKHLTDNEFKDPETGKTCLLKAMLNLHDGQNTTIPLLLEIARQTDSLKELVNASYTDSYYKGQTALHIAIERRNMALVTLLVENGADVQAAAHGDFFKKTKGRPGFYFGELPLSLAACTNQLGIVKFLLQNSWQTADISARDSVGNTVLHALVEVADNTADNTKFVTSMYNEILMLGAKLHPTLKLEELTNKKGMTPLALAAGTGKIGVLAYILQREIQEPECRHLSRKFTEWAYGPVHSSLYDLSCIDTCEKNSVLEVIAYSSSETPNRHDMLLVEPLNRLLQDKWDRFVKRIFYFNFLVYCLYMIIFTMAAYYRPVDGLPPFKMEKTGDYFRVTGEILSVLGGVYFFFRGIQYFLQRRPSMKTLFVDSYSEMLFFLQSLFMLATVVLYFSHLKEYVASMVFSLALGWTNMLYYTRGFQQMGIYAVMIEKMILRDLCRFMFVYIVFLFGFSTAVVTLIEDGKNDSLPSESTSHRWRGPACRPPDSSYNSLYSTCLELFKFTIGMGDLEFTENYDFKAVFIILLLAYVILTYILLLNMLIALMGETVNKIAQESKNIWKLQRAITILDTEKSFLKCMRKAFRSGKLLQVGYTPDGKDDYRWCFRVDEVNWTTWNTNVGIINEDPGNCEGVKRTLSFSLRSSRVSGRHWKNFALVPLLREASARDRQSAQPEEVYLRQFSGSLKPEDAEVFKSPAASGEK
Experimental readout: IC50 (nM)
Provide the reading as a plain figure in nM.

Request: # value lookup — system Transient receptor potential cation channel subfamily V member 1 (Homo sapiens), readout IC50, item CN1C(=O)NCc2c(NC(=O)N[C@@H]3CC(C)(C(F)F)Oc4cc(Cl)ccc43)cccc21 (stereo partly specified)
Response: 21

Ref: BindingDB's records for patent US8969325
